System: 252836-082-R-J2-PDC tumor spheroids, viability;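 also: spheroids exposed to agents for seven days before readout; percent of vehicle DMSO control viability so 100% = untreated growth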
Experiment: Anticancer human tumor 252836-082-R-J2-PDC patient-derived head and neck squamous cell carcinoma cell line growth inhibition [PI3K]
Details: second compound 0.316 µM; first compound 10 µM; active compounds read low; spheroids with HUVEC and MSC
Assignment: determine reported viability, T/C for the given compounds.

The recorded viability, T/C with 252836-082-R-J2-PDC tumor spheroids, viability for CCCS(=O)(=O)Nc1ccc(F)c(C(=O)c2c[nH]c3ncc(-c4ccc(Cl)cc4)cc23)c1F + Cc1nc(NC(=O)N2CCCC2C(N)=O)sc1-c1ccnc(C(C)(C)C(F)(F)F)c1 was 5.17%

The recorded viability, T/C with 252836-082-R-J2-PDC tumor spheroids, viability for CNC(=O)c1ccc(N2C(=S)N(c3ccc(C#N)c(C(F)(F)F)c3)C(=O)C2(C)C)cc1F + CC(Nc1ncnc2nc[nH]c12)c1cc2cccc(Cl)c2c(=O)n1-c1ccccc1 was 78%

The recorded viability, T/C with 252836-082-R-J2-PDC tumor spheroids, viability for C=CC(=O)N1CCN(c2nc(=O)n(-c3c(C)ccnc3C(C)C)c3nc(-c4c(O)cccc4F)c(F)cc23)C(C)C1 (stereo unspecified) + CC(Nc1ccc2c(c1)OCCn1cc(N3C(=O)OCC3C(F)F)nc1-2)C(N)=O was 67.6%

The recorded viability, T/C with 252836-082-R-J2-PDC tumor spheroids, viability for CC1(C)CCC(Nc2ncc(C(F)(F)F)c(-c3c[nH]c4c(P(C)(C)=O)c(C#N)ccc34)n2)CN1 (stereo unspecified) + COc1c(OCCCN2CCOCC2)ccc2c3n(c(=NC(=O)c4cnc(N)nc4)nc12)CCN3 was 0.63%

The recorded viability, T/C with 252836-082-R-J2-PDC tumor spheroids, viability for Cn1nccc1Nc1nccc(-c2ccn(C(CO)c3ccc(Cl)c(F)c3)c(=O)c2)n1 (stereo unspecified) + CC(Nc1ccc2c(c1)OCCn1cc(N3C(=O)OCC3C(F)F)nc1-2)C(N)=O was 28.6%

The recorded viability, T/C with 252836-082-R-J2-PDC tumor spheroids, viability for C[C@@H](NC(=O)c1ncnc(N)c1Cl)c1ncc(C(=O)Nc2cc(C(F)(F)F)c(Cl)cn2)s1 + COc1c(OCCCN2CCOCC2)ccc2c3n(c(=NC(=O)c4cnc(N)nc4)nc12)CCN3 was 9.8%

The recorded viability, T/C with 252836-082-R-J2-PDC tumor spheroids, viability for CC(C)NCC(C(=O)N1CCN(c2ncnc3c2C(C)CC3O)CC1)c1ccc(Cl)cc1 (stereo unspecified) + CC(Nc1ccc2c(c1)OCCn1cc(N3C(=O)OCC3C(F)F)nc1-2)C(N)=O was 16.6%

The recorded viability, T/C with 252836-082-R-J2-PDC tumor spheroids, viability for CC(Cn1ccc(-c2ccc(C#N)c(Cl)c2)n1)NC(=O)c1cc(C(C)O)[nH]n1 (stereo unspecified) + COc1c(OCCCN2CCOCC2)ccc2c3n(c(=NC(=O)c4cnc(N)nc4)nc12)CCN3 was 16.5%

The recorded viability, T/C with 252836-082-R-J2-PDC tumor spheroids, viability for C[C@@H](NC(=O)c1ncnc(N)c1Cl)c1ncc(C(=O)Nc2cc(C(F)(F)F)c(Cl)cn2)s1 + CC(Nc1ccc2c(c1)OCCn1cc(N3C(=O)OCC3C(F)F)nc1-2)C(N)=O was 42.2%

The recorded viability, T/C with 252836-082-R-J2-PDC tumor spheroids, viability for CC1(C)CCC(CN2CCN(c3ccc(C(=O)NS(=O)(=O)c4ccc(NCC5CCOCC5)c([N+](=O)[O-])c4)c(Oc4cnc5[nH]ccc5c4)c3)CC2)=C(c2ccc(Cl)cc2)C1 + CC(Nc1ncnc2nc[nH]c12)c1cc2cccc(Cl)c2c(=O)n1-c1ccccc1 was 81.6%

The recorded viability, T/C with 252836-082-R-J2-PDC tumor spheroids, viability for CNC(=O)c1ccc(N2C(=S)N(c3ccc(C#N)c(C(F)(F)F)c3)C(=O)C2(C)C)cc1F + COc1c(OCCCN2CCOCC2)ccc2c3n(c(=NC(=O)c4cnc(N)nc4)nc12)CCN3 was 13.4%

The recorded viability, T/C with 252836-082-R-J2-PDC tumor spheroids, viability for C=CC(=O)N1CCN(c2nc(=O)n(-c3c(C)ccnc3C(C)C)c3nc(-c4c(O)cccc4F)c(F)cc23)C(C)C1 (stereo unspecified) + CC(Nc1ncnc2nc[nH]c12)c1cc2cccc(Cl)c2c(=O)n1-c1ccccc1 was 90.5%

The recorded viability, T/C with 252836-082-R-J2-PDC tumor spheroids, viability for Cn1ncc(Cl)c1-c1cc(C(=O)NC(CN)Cc2cccc(F)c2)sc1Cl (stereo unspecified) + Cc1nc(NC(=O)N2CCCC2C(N)=O)sc1-c1ccnc(C(C)(C)C(F)(F)F)c1 was 11.1%

The recorded viability, T/C with 252836-082-R-J2-PDC tumor spheroids, viability for Cn1ncc(Cl)c1-c1cc(C(=O)NC(CN)Cc2cccc(F)c2)sc1Cl (stereo unspecified) + COc1c(OCCCN2CCOCC2)ccc2c3n(c(=NC(=O)c4cnc(N)nc4)nc12)CCN3 was 7.08%

The recorded viability, T/C with 252836-082-R-J2-PDC tumor spheroids, viability for CCCS(=O)(=O)Nc1ccc(F)c(C(=O)c2c[nH]c3ncc(-c4ccc(Cl)cc4)cc23)c1F + CC(Nc1ncnc2nc[nH]c12)c1cc2cccc(Cl)c2c(=O)n1-c1ccccc1 was 9.77%

The recorded viability, T/C with 252836-082-R-J2-PDC tumor spheroids, viability for CC(C)NCC(C(=O)N1CCN(c2ncnc3c2C(C)CC3O)CC1)c1ccc(Cl)cc1 (stereo unspecified) + COc1c(OCCCN2CCOCC2)ccc2c3n(c(=NC(=O)c4cnc(N)nc4)nc12)CCN3 was 5.44%

The recorded viability, T/C with 252836-082-R-J2-PDC tumor spheroids, viability for C[C@@H](NC(=O)c1ncnc(N)c1Cl)c1ncc(C(=O)Nc2cc(C(F)(F)F)c(Cl)cn2)s1 + CC(Nc1ncnc2nc[nH]c12)c1cc2cccc(Cl)c2c(=O)n1-c1ccccc1 was 86.5%

The recorded viability, T/C with 252836-082-R-J2-PDC tumor spheroids, viability for CCCS(=O)(=O)Nc1ccc(F)c(C(=O)c2c[nH]c3ncc(-c4ccc(Cl)cc4)cc23)c1F + CC(Nc1ccc2c(c1)OCCn1cc(N3C(=O)OCC3C(F)F)nc1-2)C(N)=O was 4.86%

The recorded viability, T/C with 252836-082-R-J2-PDC tumor spheroids, viability for CC(Cn1ccc(-c2ccc(C#N)c(Cl)c2)n1)NC(=O)c1cc(C(C)O)[nH]n1 (stereo unspecified) + CC(Nc1ncnc2nc[nH]c12)c1cc2cccc(Cl)c2c(=O)n1-c1ccccc1 was 85.9%

The recorded viability, T/C with 252836-082-R-J2-PDC tumor spheroids, viability for CNC(=O)c1ccc(N2C(=S)N(c3ccc(C#N)c(C(F)(F)F)c3)C(=O)C2(C)C)cc1F + Cc1nc(NC(=O)N2CCCC2C(N)=O)sc1-c1ccnc(C(C)(C)C(F)(F)F)c1 was 66%

The recorded viability, T/C with 252836-082-R-J2-PDC tumor spheroids, viability for C=CC(=O)N1CCN(c2nc(=O)n(-c3c(C)ccnc3C(C)C)c3nc(-c4c(O)cccc4F)c(F)cc23)C(C)C1 (stereo unspecified) + COc1c(OCCCN2CCOCC2)ccc2c3n(c(=NC(=O)c4cnc(N)nc4)nc12)CCN3 was 15.9%
